Experiment: Therapeutic index, ratio of LD50 for rhesus monkey LLC-MK2 cells to IC50 for Toxoplasma gondii RH tachyzoites
Assay type: cell-based
Settings: read-out: Ratio LD50/IC50
readout_label: selectivity ratio

## Task Reported selectivity ratio for CCOC(=O)c1cn(C2CC2)c2cc(N3CCN(CCC45CC6CC(CC(C6)C4)C5)CC3)c(F)cc2c1=O : what is it?
## Result > 60

---

Assay: Cytotoxicity against rhesus monkey LLC-MK2 cells assessed as cell viability after 48 hrs by MTS assay
Format: cell-based, Macaca mulatta
Settings: read-out: LD50
Examples of molecules with documented CC50 at 48 h follow.

Example cases with answers are listed next.
CCOC(=O)c1cn(C2CC2)c2cc(N3CCN(Cc4ccccc4)CC3)c(F)cc2c1=O ... > 30 µM
CCOC(=O)c1cn(C2CC2)c2cc(N3CCNCC3)c(F)cc2c1=O ... > 30 µM

## Task Reported CC50 at 48 h for CCOC(=O)c1cn(C2CC2)c2cc(N3CCN(CCC45CC6CC(CC(C6)C4)C5)CC3)c(F)cc2c1=O : what is it?
## Result 27.8 µM
